biological target: RAR alpha (Homo sapiens); assay: RAR alpha agonist reporter cell assay (Gal4 DBD receptor hybrid, luciferase); type: cell-based; conditions: RAR alpha, 0.01 μM, 23 hours, vs DMSO
Catalogue of Fold Activation readings, one per entry.
measured.metric: Fold Activation (fold)

• CC1=C(/C=C/C(C)=C/C=C/C(C)=C/CO)C(C)(C)CCC1 [Retinol, reference compound] = 1.77
• CC1=C(/C=C/C(C)=C/C=C/C(C)=C/C(=O)Oc2c(C)c(C)c3c(c2C)CCC(C)(CCCC(C)CCCC(C)CCCC(C)C)O3)C(C)(C)CCC1 (racemic) [(±)α-tocopheryl retinoate] = 1.27
• CC1=C(/C=C/C(C)=C/C=C/C(C)=C/C(=O)Oc2cc(C)c3c(c2)CC[C@@](C)(CCC[C@H](C)CCC[C@H](C)CCCC(C)C)O3)C(C)(C)CCC1 [(+)δ-Tocopheroyl retinoate, (+)δ-tocopheroyl retinoate] = 0.620

====

target: RAR alpha (Homo sapiens, UniProt P10276); experiment: RAR alpha agonist reporter cell assay (Gal4 DBD receptor hybrid, luciferase); type: cell-based; conditions: RAR alpha, 0.1 μM, 23 hours, vs DMSO
Sequence (P10276 183-417 limits assumed): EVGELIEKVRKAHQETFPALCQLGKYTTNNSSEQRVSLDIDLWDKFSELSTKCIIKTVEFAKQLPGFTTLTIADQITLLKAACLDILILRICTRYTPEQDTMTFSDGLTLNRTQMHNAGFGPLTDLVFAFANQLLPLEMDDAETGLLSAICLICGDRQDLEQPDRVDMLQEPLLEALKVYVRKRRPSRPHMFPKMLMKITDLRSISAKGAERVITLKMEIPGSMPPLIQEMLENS
Parameter: Fold Activation. Scope: all listed entries.
measured.metric: Fold Activation (fold)

• CC1=C(/C=C/C(C)=C/C=C/C(C)=C/CO)C(C)(C)CCC1 [Retinol, reference compound] = 6.35
• CC1=C(/C=C/C(C)=C/C=C/C(C)=C/C(=O)Oc2c(C)c(C)c3c(c2C)CCC(C)(CCCC(C)CCCC(C)CCCC(C)C)O3)C(C)(C)CCC1 (racemic) [(±)α-tocopheryl retinoate] = 9.14
• CC1=C(/C=C/C(C)=C/C=C/C(C)=C/C(=O)Oc2cc(C)c3c(c2)CC[C@@](C)(CCC[C@H](C)CCC[C@H](C)CCCC(C)C)O3)C(C)(C)CCC1 [(+)δ-Tocopheroyl retinoate, (+)δ-tocopheroyl retinoate] = 5.25

====

Molecular target: RAR beta (Homo sapiens, UniProt P10826)
Sequence (P10826 183-417 limits assumed): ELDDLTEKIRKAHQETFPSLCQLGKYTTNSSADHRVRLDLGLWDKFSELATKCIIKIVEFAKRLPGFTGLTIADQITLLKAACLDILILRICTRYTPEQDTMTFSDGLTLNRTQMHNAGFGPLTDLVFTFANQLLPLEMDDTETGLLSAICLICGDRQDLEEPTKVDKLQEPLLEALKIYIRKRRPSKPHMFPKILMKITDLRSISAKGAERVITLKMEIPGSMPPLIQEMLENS
Assay: RAR beta agonist reporter cell assay (Gal4 DBD receptor hybrid, luciferase)
Format: cell-based
Conditions: RAR beta, 0.01 μM, 23 hours, vs DMSO
Reported Fold Activation values for a set of molecules
measured.metric: Fold Activation (fold)

* CC1=C(/C=C/C(C)=C/C=C/C(C)=C/C(=O)Oc2cc(C)c3c(c2)CC[C@@](C)(CCC[C@H](C)CCC[C@H](C)CCCC(C)C)O3)C(C)(C)CCC1 [(+)δ-Tocopheroyl retinoate, (+)δ-tocopheroyl retinoate] | 1.57
* CC1=C(/C=C/C(C)=C/C=C/C(C)=C/C(=O)Oc2c(C)c(C)c3c(c2C)CCC(C)(CCCC(C)CCCC(C)CCCC(C)C)O3)C(C)(C)CCC1 (racemic) [(±)α-tocopheryl retinoate] | 0.882
* CC1=C(/C=C/C(C)=C/C=C/C(C)=C/CO)C(C)(C)CCC1 [Retinol, reference compound] | 1.63
* CC1=C(/C=C/C(C)=C/C=C/C(C)=C/C(=O)Oc2ccc(O)c(C(C)(C)C)c2)C(C)(C)CCC1 [3-tert-Butyl-4-hydroxyphenyl retinoate, 3-tert-butyl-4-hydroxyphenyl retinoate] | 232

====

compounds and their reported Fold Activation
tested on: RAR gamma; test: RAR gamma agonist reporter cell assay (Gal4 DBD receptor hybrid, luciferase); format: cell-based; settings: RAR gamma, 1 μM, 23 hours, vs DMSO
measured.metric: Fold Activation

* CC1=C(/C=C/C(C)=C/C=C/C(C)=C/C(=O)Oc2ccc(O)c(C(C)(C)C)c2)C(C)(C)CCC1 [3-tert-Butyl-4-hydroxyphenyl retinoate, 3-tert-butyl-4-hydroxyphenyl retinoate] | 701 fold
* CC1=C(/C=C/C(C)=C/C=C/C(C)=C/C(=O)Oc2cc(C)c3c(c2)CC[C@@](C)(CCC[C@H](C)CCC[C@H](C)CCCC(C)C)O3)C(C)(C)CCC1 [(+)δ-Tocopheroyl retinoate, (+)δ-tocopheroyl retinoate] | 315 fold
* CC1=C(/C=C/C(C)=C/C=C/C(C)=C/CO)C(C)(C)CCC1 [Retinol, reference compound] | 368 fold
* CC1=C(/C=C/C(C)=C/C=C/C(C)=C/C(=O)Oc2c(C)c(C)c3c(c2C)CCC(C)(CCCC(C)CCCC(C)CCCC(C)C)O3)C(C)(C)CCC1 (racemic) [(±)α-tocopheryl retinoate] | 365 fold

====

tested on: RAR gamma; test: RAR gamma agonist reporter cell assay (Gal4 DBD receptor hybrid, luciferase); format: cell-based; details: RAR gamma, 0.01 μM, 23 hours, vs DMSO
The following compounds are shown together with reported Fold Activation values.
measured.metric: Fold Activation (fold)

* CC1=C(/C=C/C(C)=C/C=C/C(C)=C/C(=O)Oc2ccc(O)c(C(C)(C)C)c2)C(C)(C)CCC1 [3-tert-Butyl-4-hydroxyphenyl retinoate, 3-tert-butyl-4-hydroxyphenyl retinoate] | 541
* CC1=C(/C=C/C(C)=C/C=C/C(C)=C/C(=O)Oc2cc(C)c3c(c2)CC[C@@](C)(CCC[C@H](C)CCC[C@H](C)CCCC(C)C)O3)C(C)(C)CCC1 [(+)δ-Tocopheroyl retinoate, (+)δ-tocopheroyl retinoate] | 1.10
* CC1=C(/C=C/C(C)=C/C=C/C(C)=C/C(=O)Oc2c(C)c(C)c3c(c2C)CCC(C)(CCCC(C)CCCC(C)CCCC(C)C)O3)C(C)(C)CCC1 (racemic) [(±)α-tocopheryl retinoate] | 1.79
* CC1=C(/C=C/C(C)=C/C=C/C(C)=C/CO)C(C)(C)CCC1 [Retinol, reference compound] | 2.28

====

biological target: RAR beta (Homo sapiens, UniProt P10826); assay: RAR beta agonist reporter cell assay (Gal4 DBD receptor hybrid, luciferase); format: cell-based; conditions: RAR beta, 1 μM, 23 hours, vs DMSO
Fold Activation values, listed per item
measured.metric: Fold Activation (fold)

* CC1=C(/C=C/C(C)=C/C=C/C(C)=C/C(=O)Oc2cc(C)c3c(c2)CC[C@@](C)(CCC[C@H](C)CCC[C@H](C)CCCC(C)C)O3)C(C)(C)CCC1 [(+)δ-Tocopheroyl retinoate, (+)δ-tocopheroyl retinoate] | 53.4
* CC1=C(/C=C/C(C)=C/C=C/C(C)=C/C(=O)Oc2ccc(O)c(C(C)(C)C)c2)C(C)(C)CCC1 [3-tert-Butyl-4-hydroxyphenyl retinoate, 3-tert-butyl-4-hydroxyphenyl retinoate] | 331
* CC1=C(/C=C/C(C)=C/C=C/C(C)=C/C(=O)Oc2c(C)c(C)c3c(c2C)CCC(C)(CCCC(C)CCCC(C)CCCC(C)C)O3)C(C)(C)CCC1 (racemic) [(±)α-tocopheryl retinoate] | 149
* CC1=C(/C=C/C(C)=C/C=C/C(C)=C/CO)C(C)(C)CCC1 [Retinol, reference compound] | 127

Cited source for all entries: patent US20230095276A1
